outcome-measure: melting point

For orientation, consider the following solved cases.
compound=COc1ccc(Oc2ccc(C(=O)N(C(C)C)C3CCCCC3)cc2)cc1OC result="107 °C"
compound=CCc1nc(-c2ccc(F)cc2)c(-c2ccc(S(C)(=O)=O)cc2)s1 result="156 to 157 °C"
compound="CCN(CC)CCNC(=O)c1cc(Cl)c(N)cc1OCCCCS(C)=O (centres undefined)" result="80 to 83 °C"
compound=Oc1ccc2nc(-c3cccc4c(O)cccc34)oc2c1 result="240 to 242 °C"
compound=O=C(O)c1cn(Cc2cnsn2)c2nc(Cl)c(F)cc2c1=O result="231 to 232 °C"

Report melting point, nothing else, for this compound: CC=CCn1c(C)c(C)c2cnnc(OCc3cc(F)cc(F)c3)c21
78 to 84 °C

Report melting point, nothing else, for this compound: COc1ccc(C2(c3ccc(OC)cc3)Nc3ccc(-c4ccc5[nH]cnc5c4)cc3N2)cc1
267 to 270 °C

Report melting point, nothing else, for this compound: CC(=O)c1ccc(OCCCCN2C(=O)c3ccccc3C2=O)cc1
112 to 114 °C

----------
Reported melting point is given for each of the following compounds.

Report melting point, nothing else, for this compound: Cc1cn(-c2cccc(C(=O)CC(=O)Nc3cc(-c4ccccc4F)ccc3NC(=O)OC(C)(C)C)c2)c(C)n1
145 °C

Report melting point, nothing else, for this compound: CC(=O)N(O)Cc1ccc(C(O)C#Cc2cccs2)cc1 (stereo not drawn)
125 to 126 °C

Report melting point, nothing else, for this compound: CN1CCc2c(Cl)ccc(CO)c2CC1
136 to 140 °C

Report melting point, nothing else, for this compound: CC(C)(C)C(=O)OCOC(=O)c1c2n(c3cc4c(cc3c1=O)OCO4)CCS2
229 to 230 °C

Report melting point, nothing else, for this compound: O=S(=O)(/C=C\S(=O)(=O)c1ccccc1)c1ccccc1
100 to 101 °C

Report melting point, nothing else, for this compound: Cn1c(=O)c2ccccc2n(C)c1=S
184 °C

Report melting point, nothing else, for this compound: Cc1[nH]c(-c2ccccc2)nc1CO
197 to 199 °C

----------
Reported melting point is given for each of the following compounds.

compound=CC(C)c1nc2cc(COc3ccc(C=C4SC(=O)NC4=O)cc3)ccc2o1 outcome_measure="melting point" result="219 to 221 °C"
compound="O=C1CC(C(=O)O)CC(O)=C1N=Nc1ccccc1 (configuration not stated)" outcome_measure="melting point" result="218 °C"
compound=CC(=O)Nc1ccc(-c2nnn(-c3ccc(C(F)(F)F)cc3F)c2N)cc1 outcome_measure="melting point" result="115 to 116 °C"
compound=Cn1cc(-c2ccc3c(ccn3-c3ccc(F)cc3)c2)cn1 outcome_measure="melting point" result="144 to 145 °C"

Please find the next compound below.
Report melting point, nothing else, for this compound: Cc1nc2c(O)cccn2c(=O)c1CCN1CCC(c2noc3cc(F)ccc23)CC1
288 °C

----------
Reported melting point is given for each of the following molecules.

molecule=CC(C)c1nc(C(N)=O)c2n1-c1ccc(Cl)cc1C(c1ccccc1Cl)=NC2 result="328 to 330 °C"
molecule="CC(C)c1cccc(C(C)C)c1NC(=O)CNC(c1ccccc1)c1ccc(F)cc1 (centres undefined)" result="161 °C"
molecule="CN(C)Cc1cnn(C)c1-c1ccc(Cl)cc1C(O)c1ccccc1F (centres undefined)" result="125 to 127 °C"
molecule=CCCCCC1=C(/C=C/C(=O)O)Cc2cc(OC)ccc21 result="165 to 166 °C"

Report melting point, nothing else, for this molecule: Cc1nc(-c2ccc(C(=O)N(C)c3ccc(Cl)cc3)cc2)sc1C(=O)O
210 to 212 °C

Report melting point, nothing else, for this molecule: C[C@H](OC(=O)NCCC(F)(F)C(F)(F)F)C(=O)N[C@@H]1C(=O)N(CCO)c2ccccc2-c2ccccc21
181 to 184 °C

Report melting point, nothing else, for this molecule: CCOC(=O)c1cnn(-c2ccc(F)cc2)c1Cl
70 to 72 °C

Report melting point, nothing else, for this molecule: c1cc(C2=NCCS2)nc(C2OCCO2)c1
50 to 52 °C

Report melting point, nothing else, for this molecule: Cc1nnc(-c2ccnc(Nc3cccc(C(F)(F)F)c3)c2)o1
217 to 218 °C

----------
outcome-measure: melting point

For orientation, consider the following solved cases.
structure_smiles=COc1ccc2c(c1)S(=O)(=O)N=CN2CCO outcome_measure="melting point" result="160 to 162 °C"
structure_smiles=O=C(NCCCCCCCNC(=O)c1ccc(OC2CCCCC2)cc1)c1ccc(OC2CCCCC2)cc1 outcome_measure="melting point" result="144 to 145 °C"

Report melting point, nothing else, for this compound: O=C(O)c1ccc2c(c1)C(=O)N(c1ccccc1C(=O)O)C2=O
262 to 264 °C

----------
outcome-measure: melting point

For orientation, consider the following solved cases.
compound="O=C(Nc1ccccc1)N1CCC(C2Oc3ccccc3Cn3cccc32)CC1 (stereo not drawn)" outcome_measure="melting point" result="167 to 170 °C"
compound="COC(=O)C1=C(C)NC(c2c(F)cccc2F)=NC1c1ccc(F)cc1Cl (stereo not drawn)" outcome_measure="melting point" result="126 to 128 °C"
compound=NS(=O)(=O)c1nccn1-c1nccs1 outcome_measure="melting point" result="157 to 162 °C"
compound=CCCCN(Cc1ccc(-c2ccccc2-c2nnnn2C(c2ccccc2)(c2ccccc2)c2ccccc2)cc1)c1cc(C)nc(C)n1 outcome_measure="melting point" result="125 to 127 °C"
compound=CCN(CC)c1cccc(-c2ccc(C(=O)O)c(=O)[nH]2)c1 outcome_measure="melting point" result="256 to 258 °C"
compound=COc1ccc(NC(C)=O)cc1F outcome_measure="melting point" result="120 °C"

Report melting point, nothing else, for this compound: COC(=O)COc1c(OC)cc(C(=O)C#Cc2cc(-c3cccs3)c(OC)cc2OC)cc1OC
153 to 155 °C

Report melting point, nothing else, for this compound: O=C(O)CCCCCOc1ccc(OCc2ccccc2)cc1
100 to 101 °C

Report melting point, nothing else, for this compound: Clc1ccc(Cn2cc(C=NNc3nc(-c4ccc(Cl)cc4Cl)cs3)c3ccccc32)c(Cl)c1
185 °C

Report melting point, nothing else, for this compound: CCOC(=O)C=Cc1ccc([N+](=O)[O-])c(C)c1
90 to 92 °C

Report melting point, nothing else, for this compound: COc1cc(NS(=O)(=O)c2cccs2)c2[nH]c(C3=NCCS3)cc2c1
188 to 189 °C

Report melting point, nothing else, for this compound: CC(C)Cc1cccc(-c2nc(C(C)C)n(C)n2)n1
80.1 °C

Report melting point, nothing else, for this compound: O=c1[nH]c(=O)n(C2CC(OCc3ccccc3)C(CO)O2)cc1F (stereo not drawn)
138 to 139 °C

----------
outcome-measure: melting point

For orientation, consider the following solved cases.
molecule=O=C(Nc1cnc(-c2ccccc2)[nH]c1=O)OCc1ccccc1 outcome_measure="melting point" result="217 to 219 °C"
molecule=CN(CCO)c1ccc(C=Cc2ccc(S(C)(=O)=O)cc2)cc1 outcome_measure="melting point" result="201 to 204 °C"
molecule="CCC(Oc1ccc2c(-c3ccc(Cl)cc3)noc2c1)C(=O)O (configuration not stated)" outcome_measure="melting point" result="144 °C"
molecule="COc1ccc(C2=NN(c3nc(-c4cccs4)ns3)C(=O)[C@H]3CC=CC[C@@H]23)cc1Cl (relative stereo)" outcome_measure="melting point" result="254 to 256 °C"
molecule=O=C(NC1=NCCS1)c1cnc2c(C(F)(F)F)cccc2c1O outcome_measure="melting point" result="267 to 268 °C"
molecule=COC(=O)C(Cl)=Cc1ccc(OC)cc1 outcome_measure="melting point" result="68 to 70 °C"
molecule=O=[N+]([O-])c1ccc(Oc2ccccc2)nc1 outcome_measure="melting point" result="84 to 86 °C"
molecule=COC(=O)c1ccccc1Nc1ccccc1 outcome_measure="melting point" result="92.5 to 102 °C"

Report melting point, nothing else, for this molecule: C=CCN1CCCC1CNC(=O)c1cc(S(=O)(=O)CC)cc2c1OCCO2 (configuration not stated)
78 to 80 °C

Report melting point, nothing else, for this molecule: COC(=O)C(O)C(CC(C)C)NC(=O)C(Cc1c[nH]cn1)NC(=O)C(CC(=O)NCCc1ccccc1)Cc1cccc2ccccc12 (mixture of isomers)
82 to 87 °C

----------
outcome-measure: melting point

For orientation, consider the following solved cases.
molecule=CC1(C)NC(=S)C1(C)C outcome_measure="melting point" result="117 to 118 °C"
molecule="CS(=O)c1ccc(Oc2ccc(Cl)c(Cl)c2)nc1 (stereo not given)" outcome_measure="melting point" result="88 to 90 °C"
molecule=COC(=O)CN1C(=O)[C@H](C(C)C)Oc2c(C(C)C)cccc21 outcome_measure="melting point" result="67 to 68 °C"
molecule=Cc1cccc(-c2[nH]c(C(C)C)nc2-c2ccc(F)c(-c3c[nH]cn3)c2)n1 outcome_measure="melting point" result="268 to 270 °C"
molecule="NC(=O)c1ncn(C2OC(CO)C(O)C2O)c1C(N)=O (stereo not given)" outcome_measure="melting point" result="224 to 226 °C"

Report melting point, nothing else, for this molecule: O=C(CS(=O)(=O)C(c1ccc(Cl)cc1)c1ccc(Cl)cc1)c1ccccn1
120 to 121 °C

Just for reference, a melting point compilation (Tetko et al.; mined from patent text by program, amines drawn as free bases though some values may be those of a salt) is where these values come from.
